Taken from patent US9321728B2.

target: human DGAT1 (Homo sapiens (Human), UniProt O75907); experiment: Human DGAT1 enzyme inhibition test (phospholipid FlashPlate, [14C]decanoyl-CoA); details: lysate of Hep3B cells over-expressing human DGAT1 (5 μg/well); didecanoyl glycerol and [14C]decanoyl-CoA substrates
Sequence (O75907 whole entry): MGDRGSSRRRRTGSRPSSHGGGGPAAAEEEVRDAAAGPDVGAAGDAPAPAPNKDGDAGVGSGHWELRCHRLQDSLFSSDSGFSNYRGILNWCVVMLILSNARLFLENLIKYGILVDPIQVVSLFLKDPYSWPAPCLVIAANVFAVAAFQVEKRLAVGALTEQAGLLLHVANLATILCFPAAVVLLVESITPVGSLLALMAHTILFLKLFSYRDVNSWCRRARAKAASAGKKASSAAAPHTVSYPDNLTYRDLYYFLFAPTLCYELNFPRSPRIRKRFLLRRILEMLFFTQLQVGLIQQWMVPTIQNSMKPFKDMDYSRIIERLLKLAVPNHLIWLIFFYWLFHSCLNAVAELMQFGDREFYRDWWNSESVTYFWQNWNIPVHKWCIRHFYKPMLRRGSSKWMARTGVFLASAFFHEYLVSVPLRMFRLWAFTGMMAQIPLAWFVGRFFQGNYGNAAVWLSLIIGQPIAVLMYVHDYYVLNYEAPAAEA
This listing pairs molecules with measured IC50.
Recorded Metric: IC50

{"Molecule": "O=C(O)C[C@H]1CC[C@H](c2ccc(NC(=O)CCNC(=O)c3cn(-c4ccccc4Cl)nc3C(F)(F)F)cc2)CC1", "Recorded Metric": "IC50", "Result": "< 100 nM"}
{"Molecule": "O=C(O)C[C@H]1CC[C@H](c2ccc(NC(=O)CCNC(=O)c3cn(-c4ccccc4)nc3C(F)(F)F)cc2)CC1", "Recorded Metric": "IC50", "Result": "< 100 nM"}
{"Molecule": "O=C(O)C[C@H]1CC[C@H](c2ccc(NC(=O)CCNC(=O)c3nc(-c4ccc(Cl)cc4Cl)oc3C(F)(F)F)cc2)CC1", "Recorded Metric": "IC50", "Result": "< 50 nM"}
{"Molecule": "O=C(O)C[C@H]1CC[C@H](c2ccc(NC(=O)CCNC(=O)c3nc(-c4ccccc4)oc3C(F)(F)F)cc2)CC1 [Compound 22]", "Recorded Metric": "IC50", "Result": "< 500 nM"}
{"Molecule": "Cc1ccc(-c2nc(C(=O)NCCC(=O)Nc3ccc([C@H]4CC[C@H](CC(=O)O)CC4)cc3)c(C(F)(F)F)o2)cc1", "Recorded Metric": "IC50", "Result": "< 100 nM"}
{"Molecule": "O=C(O)C[C@H]1CC[C@H](c2ccc(NC(=O)CCNC(=O)c3nc(-c4c(Cl)cc(F)cc4Cl)oc3C(F)(F)F)cc2)CC1", "Recorded Metric": "IC50", "Result": "< 50 nM"}
{"Molecule": "O=C(O)C[C@H]1CC[C@H](c2ccc(NC(=O)CCNC(=O)c3nc(-c4ccccc4)oc3C(F)(F)F)cc2)CC1 [Compound 6]", "Recorded Metric": "IC50", "Result": "< 50 nM"}
{"Molecule": "O=C(O)C[C@H]1CC[C@H](c2ccc(NC(=O)CCNC(=O)c3nc(-c4ccccc4C(F)(F)F)oc3C(F)(F)F)cc2)CC1", "Recorded Metric": "IC50", "Result": "< 50 nM"}
{"Molecule": "CCOc1ccc(C(=O)NCCC(=O)Nc2ccc([C@H]3CC[C@H](CC(=O)O)CC3)cc2)cc1", "Recorded Metric": "IC50", "Result": "< 50 nM"}
{"Molecule": "Cc1ccc(-n2cc(C(=O)NCCC(=O)Nc3ccc([C@H]4CC[C@H](CC(=O)O)CC4)cc3)c(C(F)(F)F)n2)cc1", "Recorded Metric": "IC50", "Result": "< 100 nM"}
{"Molecule": "O=C(O)C[C@H]1CC[C@H](c2ccc(NC(=O)CCNC(=O)c3nc(-c4ccc(Br)cc4)oc3C(F)(F)F)cc2)CC1", "Recorded Metric": "IC50", "Result": "< 100 nM"}
{"Molecule": "O=C(O)C[C@H]1CC[C@H](c2ccc(NC(=O)CCNC(=O)c3ccc(-c4ccccc4)c(Cl)c3)cc2)CC1", "Recorded Metric": "IC50", "Result": "< 50 nM"}
{"Molecule": "O=C(O)C[C@H]1CC[C@H](c2ccc(NC(=O)CCNC(=O)c3ccc(-c4ccccc4Cl)cc3)cc2)CC1", "Recorded Metric": "IC50", "Result": "< 100 nM"}
{"Molecule": "O=C(O)C[C@H]1CC[C@H](c2ccc(NC(=O)CCNC(=O)c3nc(-c4c(Cl)cccc4Cl)oc3C(F)(F)F)cc2)CC1 [Compound 68]", "Recorded Metric": "IC50", "Result": "< 50 nM"}
